# Tested on: DMS 114 small cell lung
# TEST SUMMARY: NCI tumour cell line growth inhibition, 48 h
READOUT NAME: TGI

GET TGI | system: DMS 114 small cell lung | item: CC(=O)[CH-]C(C)=O.CC(=O)[CH-]C(C)=O.[CH2-]CCC.[CH2-]CCC.[Sn+4]
0.301 µM

# assay system DMS 114 small cell lung: give TGI of CC(C)(C)N=NNc1cn(C2OC(CO)C(O)C2O)c(=O)[nH]c1=O (stereo not drawn)
> 100 µM

Print DMS 114 small cell lung TGI for C=C1C(=O)O[C@@H]2C[C@@H](C)[C@@H]3C=CC(=O)[C@@]3(C)[C@@H](OC(=O)CC(=O)O[C@H]3[C@@H]4C(=C)C(=O)O[C@@H]4C[C@@H](C)[C@@H]4C=CC(=O)[C@]43C)[C@H]12 .
0.108 µM

Give TGI for this entry on DMS 114 small cell lung: CCC[CH2][Sn]1([CH2]CCC)[O]CC(Cc2ccccc2)[O]1 (stereo not drawn)
3.59 µM

Fetch value of TGI on DMS 114 small cell lung for CCOC(=O)C1N(S(=O)(=O)c2ccc(C)cc2)CCC12c1ccccc1N(C(C)=O)C2c1ccc(OC)c(OC)c1 (stereo not drawn) .
> 100 µM

Jot down TGI (DMS 114 small cell lung) of COC(=O)/C=C1/CCC(C(=O)OC)N1 (stereo not drawn) .
> 100 µM

Would you please give the reported TGI of CC(=O)[O][Ga]([Cl])[O]C(C)=O with DMS 114 small cell lung?
> 100 µM

Write down measured TGI (DMS 114 small cell lung) for this compound. CN(C)CC(C)(C)/C(=N\Nc1ccccc1)c1ccccc1
> 100 µM

State TGI (DMS 114 small cell lung) of C[C@]12CCC(=O)C=C1CC[C@@H]1[C@@H]2[C@@H](O)C[C@@]2(C)[C@H]1CC[C@]2(O)C(=O)COC(=O)COCC(=O)O .
> 100 µM

State the measured TGI (DMS 114 small cell lung) of Cc1nc(Nc2ccc(Cl)cc2)sc1C(=O)NNc1ccc([N+](=O)[O-])cc1[N+](=O)[O-]
37.8 µM

Report TGI under test system DMS 114 small cell lung for CC(C)OP(=O)(OC(C)C)/C(I)=N/Nc1ccc([N+](=O)[O-])cc1 .
> 100 µM

Under DMS 114 small cell lung, report TGI for COC(=O)N(C(=O)OC)C(C(=O)O)C(C)C (stereo not drawn)
> 100 µM

# return TGI of NC(CCCC(N)P(=O)(O)c1ccccc1)P(=O)(O)c1ccccc1 (stereo not drawn) (system: DMS 114 small cell lung)
> 261 µM

* * *

# System: M14 melanoma
# TEST SUMMARY: NCI tumour cell line growth inhibition, 48 h
I'd be grateful if you could share measured log10 of TGI for these entries.
Hi team, quick reminder: these entries are log10 of TGI (µM).

Note log10 of TGI for the compound shown: Cc1cccc2c(=O)c([Se]c3coc4c(C)cccc4c3=O)coc12
1.48

Let me know recorded log10 of TGI for COc1cc(NC(N)=NCCC(C)(C)Oc2ccc(C(F)(F)F)cc2)ncc1C#N , thanks.
0.49

State its log10 of TGI for this compound: CN(C)CCNC(=O)c1cccc2c(NCCN(C)C)c3ccccc3nc12
1.27

Check the records and state log10 of TGI for CC(=O)O[C@H]1CC[C@@]2(C)C(=CC[C@H]3[C@@H]4CC[C@H](c5cc(C(F)(F)F)n(C(C)=O)n5)[C@@]4(C)CC[C@@H]32)C1
1.34

Give log10 of TGI for the following compound: O=C(/C=C/c1ccc(O)c(O)c1)OCCCc1ccccc1
1.35

Give log10 of TGI for the following compound: COc1ccc(-c2cn[nH]c2-c2cc(OC)c3c(c2)OCO3)cc1
1.11

Give reported log10 of TGI value for COc1cc(OC)cc(N(CCNC(C)C)c2ccc3ncc(-c4cnn(C)c4)nc3c2)c1
1.27

Quickly give me recorded log10 of TGI for CCOC(=O)N1CCN(c2nc(Nc3cc(C)[nH]n3)c3ccccc3n2)CC1
1.46

Please look at this compound and report its log10 of TGI: C#CCOc1cccc(-c2ncnc3cc(NC(=O)CCl)ccc23)c1
0.42

* * *

Please respond with reported TGI for every item in the list.
# System: OVCAR-4 ovarian
# TEST SUMMARY: NCI tumour cell line growth inhibition, 48 h

For the compound O=S(=O)(c1ccccc1)n1c2ccc(Br)cc2c2nc3ccccc3nc21 , report TGI.
> 100 µM

# return recorded TGI for input Cc1nc(Nc2ccc(Cl)cc2)sc1C(=O)NNc1ccc([N+](=O)[O-])cc1[N+](=O)[O-]
35.3 µM

Check the records and state TGI for Cc1ccc(-c2csc(/N=C3\C(=O)Nc4ccccc43)n2)cc1
6.48 µM

Please give the documented TGI of O=c1nc(/C=C/c2ccccc2Cl)cc2n1CCN2CCO
> 100 µM

Report TGI, nothing else, for this compound: N/C(=N\S(=O)(=O)c1ccc(S(=O)(=O)c2ccccc2)s1)Nc1ccc(Cl)cc1
94.8 µM

Provide TGI value for the following compound: Nc1nc(Cl)c(N)c(NCC2(CO)CC(OCc3ccccc3)C2)n1 (configuration not stated)
> 100 µM

Supply TGI value. Item: C[C@H](CCC(=O)NCCS(=O)(=O)O)[C@H]1CC[C@H]2[C@@H]3CC[C@@H]4C[C@H](O)CC[C@]4(C)[C@H]3CC[C@]12C
> 100 µM

* * *

I'd be grateful if you could share measured TGI for these entries.
# Test system: HCT-15 colon
# TEST SUMMARY: NCI tumour cell line growth inhibition, 48 h

Tell me measured TGI for CCC[CH2][Sn]1([CH2]CCC)[O]CC(Cc2ccccc2)[O]1 (stereo not given) please.
5.82 µM

Name the recorded TGI of the molecule listed here: CN(C)c1ccc(C(=C(c2ccc(N(C)C)cc2)c2ccc(N(C)C)cc2)c2ccc(N(C)C)cc2)cc1
32.7 µM

Provide one value: measured TGI of C#Cc1cccc(N2C(=O)CCC2=O)c1
50 µM

Give the reported TGI for this molecule. CC(O)c1cc2c(s1)C(=O)c1sccc1C2=O (stereo not given)
0.178 µM

Answer with the recorded TGI for the molecule listed here: CCCCCC(=O)C(C)C1=Nc2nnc(CCCCCCCc3nnc4n3C(=O)C(C(C)C(=O)CCCCC)=N4)n2C1=O (stereo not given)
> 100 µM

State its TGI: O=C(c1ccc(Cl)cc1)c1ccc(OCCCOc2ccc(C(=O)c3ccc(Cl)cc3)cc2)cc1
> 100 µM

Kindly indicate its recorded TGI. Item: COc1ccc2c(C)cc(N/N=C/c3ccc(OC)c4ccccc34)nc2c1
23.4 µM

For the molecule O=S(=O)(O)c1cc(O)c2c(N=Cc3ccccc3O)cc(S(=O)(=O)O)cc2c1 , give its reported TGI.
> 100 µM

Answer with the recorded TGI for the molecule listed here: CN(C)CC(C)(C)C(=O)/C=C/c1ccc(/C=C/C(=O)C(C)(C)CN(C)C)cc1
5.49 µM

Answer with reported TGI of COc1cc(C2c3cc4c(cc3[C@@H](Nc3ccccc3)C3COC[C@H]23)OCO4)cc(OC)c1O (stereo not given in full)
12.9 µM

* * *

# Test system: ACHN renal
# TEST SUMMARY: NCI tumour cell line growth inhibition, 48 h
So basically: TGI at 8 µM or higher? That is MET. Lower than 8 µM? That is NOT MET.

Please check the record O=C(/C=C/c1ccc(O)c(O)c1)OCCCc1ccccc1 and state if its TGI is at or above 8 µM.
MET

Hello, I need to know if CCCC(=O)NC1=C(Cl)C(=O)c2ccccc2C1=O has measured TGI not below 8 µM. Thanks!
NOT MET

Assess whether reported TGI for C[n+]1c(-c2ccc(/C=N/NC(=N)N/N=C/c3ccc(-c4cn5cc(Cl)ccc5[n+]4C)cc3)cc2)cn2cc(Cl)ccc21 sits at 8 µM or higher.
MET

// inclusive: TGI at least 8 µM? input: Cn1c(=O)c(C(=O)Nc2nc(C34CC5CC(CC(C5)C3)C4)cs2)c(O)c2ccccc21
MET

Does the reported TGI for CC(C)(C)C(=O)c1c(C(F)(F)F)n([O-])c2ccccc2[n+]1=O fall at or above the 8 µM mark?
NOT MET

Hi team, for CO[C@H]1/C=C/O[C@@]2(C)Oc3c(C)c(O)c4c(c3C2=O)C(=O)C(/C=N/N(c2ccccc2)c2ccccc2)=C(NC(=O)/C(C)=C\C=C\[C@H](C)[C@H](O)[C@@H](C)[C@@H](O)[C@@H](C)[C@H](OC(C)=O)[C@@H]1C)C4=O , is the recorded TGI at or above 8 µM?
NOT MET

Is it the case that CC(C)/C(Cl)=N\OC(=O)Nc1ccccc1F has TGI reaching or exceeding 8 µM?
MET

Kindly determine if TGI recorded for Cc1ccc(S(=O)(=O)NC(=O)C2C(=O)CC3(CCCCC3)CC2=O)cc1 is above or exactly 8 µM.
MET

Given Cc1ccc(SC(CCC(Sc2ccc(C)cc2)Sc2ccc(C)cc2)Sc2ccc(C)cc2)cc1 , state whether its TGI is at least 8 µM.
MET

// inclusive: TGI at least 8 µM? input: S=C(NC1=NCC(CN2CCN(c3ccccc3)CC2)O1)Nc1ccccc1 (centres undefined)
MET

Quick check, TGI >= 8 µM? O=c1nc(/C=C/c2ccccc2Cl)cc2n1CCN2CCO
MET

Given COc1ccc2c(CN3CCCCC3CO)cc3cc(OC)c(OC)cc3c2c1 (centres undefined) , state whether its TGI is at least 8 µM.
MET

Identify whether the reported TGI of the following compound is 8 µM or greater: COc1ccc2nc3c([N+](=O)[O-])ccc4c3c(c2c1)NCCN4CCO
NOT MET

Is TGI at least 8 µM? Consider CCCCC(C#N)(OP1(=O)OC(c2ccccc2)C(C)N1C)c1ccccc1 (centres undefined)
MET

Does Cc1c(Cl)nc(Nc2nc3ccccc3[nH]2)nc1Cl have a reported TGI of at least 8 µM?
MET

Threshold query (TGI >= 8 µM) on COc1ccc2c(C)cc(N/N=C/c3ccc(OC)c4ccccc34)nc2c1
MET

Does TGI meet or surpass 8 µM for CC(C(=O)c1ccccc1)C(c1ccccc1)N1CCOCC1 (centres undefined) ?
MET

TGI >= 8 µM for C[C@H](CCC(=O)NCCS(=O)(=O)O)[C@H]1CC[C@H]2[C@@H]3CC[C@@H]4C[C@H](O)CC[C@]4(C)[C@H]3CC[C@]12C ?
MET

Hi, just wondering whether COc1cc(-c2cc3ncccc3c3nc(N)c4cccnc4c23)cc(OC)c1OC shows TGI of 8 µM or higher.
MET

Is the recorded value of TGI equal to or greater than 8 µM for this compound? N/C(=N\S(=O)(=O)c1ccc(S(=O)(=O)c2ccccc2)s1)Nc1ccc(Cl)cc1
MET

Please check the record Oc1[nH]c2ccccc2c1N=Nc1ccccn1 and state if its TGI is at or above 8 µM.
MET

Is it the case that COc1ccc(-n2cnnc2-c2nsc3ccccc23)cc1 has TGI reaching or exceeding 8 µM?
MET

Quick check: does Nn1c(COc2cccc(OCc3n[nH]c(=S)n3N)c2)n[nH]c1=S have TGI greater than or equal to 8 µM?
MET

Could you tell me if the measured TGI of C=C1C(=O)O[C@@H]2C[C@@H](C)[C@@H]3C=CC(=O)[C@@]3(C)[C@@H](OC(=O)CC(=O)O[C@H]3[C@@H]4C(=C)C(=O)O[C@@H]4C[C@@H](C)[C@@H]4C=CC(=O)[C@]43C)[C@H]12 reaches 8 µM or more?
NOT MET

Is reported TGI greater than or equal to 8 µM here: Cc1cnc2sn(-c3ccc(Oc4ccccc4)cc3)c(=O)c2c1
MET

Form field: TGI at least 8 µM? Entry: COC(=O)[C@@H](C)C[C@H](Cc1ccccc1)NC(=O)c1csc(CC[C@H](C(C)C)N(C)C(=O)[C@@H](NC(=O)[C@H]2CCCCN2C)C(C)C)n1
MET

Would you say CCOC(=O)c1ccc(Nc2c3c(nc4ccccc24)CCCC3)cc1 shows TGI at minimum 8 µM?
MET

Quick check: does C=C(COC(C)=O)CC(OC(C)=O)c1ccccc1 (centres undefined) have TGI greater than or equal to 8 µM?
MET

Exam item: decide whether the reported TGI for O=C1CCC2(CC1CC(Sc1ccccc1)Sc1ccccc1)OCCO2 (centres undefined) is at least 8 µM.
MET

For this compound, is measured TGI 8 µM or higher? CN(C)CC(C)(C)C(=O)/C=C/c1ccc(/C=C/C(=O)C(C)(C)CN(C)C)cc1
NOT MET

Check if TGI >= 8 µM (inclusive). Item: Cc1nc(SCC(=O)Nc2nc(-c3ccc(Cl)cc3)cs2)n(Nc2ccccc2)c1C
MET

TGI >= 8 µM for Fc1ccc2[nH]cc(-c3nonc3-c3c[nH]c4ccc(Br)cc34)c2c1 ?
MET

Identify whether the reported TGI of the following compound is 8 µM or greater: Cc1[nH]c2ccccc2c1C(=O)CC1(O)C(=O)Nc2ccccc21 (centres undefined)
MET

Determine whether this compound has TGI no lower than 8 µM: O=c1c(Oc2ccc(F)cc2F)cc2cnc(NC3CCOCC3)nc2n1CCCO
MET

Reported TGI reaches at least 8 µM for CCOC(=O)N1CCN(c2nc(Nc3cc(C)[nH]n3)c3ccccc3n2)CC1 ?
MET

Check this compound for TGI at or above 8 µM: BrCCCCCOc1ccc(-c2c3ccccc3c(-c3ccc(OCCCCCBr)cc3)c3ccccc23)cc1
MET

Test whether the compound CCC12CCCN(Cc3ccccc3)C1c1c([nH]c3ccccc13)C(C(=O)OC)C2 (centres undefined) records TGI of 8 µM or higher.
MET

Decide: TGI of COc1ccc2nc3ccc(OC)cc3c(SCCO)c2c1 >= 8 µM?
MET
